system under test: hPPARγ1 (Homo sapiens)
Construct: expressed in transfected cells; host or cells: HEK-293
Sequence (P37231 238-503 limits assumed): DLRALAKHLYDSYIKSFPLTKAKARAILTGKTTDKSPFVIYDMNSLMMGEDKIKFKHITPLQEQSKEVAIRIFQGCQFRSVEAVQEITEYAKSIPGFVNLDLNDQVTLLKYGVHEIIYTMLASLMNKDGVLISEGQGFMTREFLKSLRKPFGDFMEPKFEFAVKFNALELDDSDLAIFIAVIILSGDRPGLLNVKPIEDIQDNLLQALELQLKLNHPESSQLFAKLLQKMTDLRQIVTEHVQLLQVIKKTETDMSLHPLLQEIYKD
method: Determination of hPPARγ activity (GAL4-LBD luciferase reporter transactivation in HEK-293 cells)
Assay type: cell-based
protocol conditions: 1 μM compound
Each entry below carries its recorded PPAR fold activation, PPAR γ at 1 μM concentration.
Please state the figure in fold; there is no need to write the unit.

Entry CCOC(Cc1ccc(NCCCN2CCCc3ccccc32)cc1)C(=O)O (stereo not shown) has what PPAR fold activation, PPAR γ at 1 μM concentration?
11.9

Entry CO[C@@H](Cc1ccc(NCCCn2ccc3ccccc32)cc1)C(=O)O has what PPAR fold activation, PPAR γ at 1 μM concentration?
6.1

Entry CCOC(Cc1ccc(NCc2ccc3cc(OS(C)(=O)=O)ccc3c2)cc1)C(=O)O (stereo not shown) has what PPAR fold activation, PPAR γ at 1 μM concentration?
4.5

Entry CCOC(Cc1ccc(NCCCN2CCc3ccccc32)cc1)C(=O)O (stereo not shown) has what PPAR fold activation, PPAR γ at 1 μM concentration?
6

====

Where a name gives a salt, the structure may show the parent alone.
Each entry below carries its recorded melting point.

# molecule, measure name, endpoint result
records = [
    ("CO[C@@H](Cc1ccc(NCCCn2ccc3ccccc32)cc1)C(=O)O (as salt: salt) [Example 48]", "melting point", "105 °C"),
    ("CCOC(Cc1ccc(NCc2ccc3cc(OS(C)(=O)=O)ccc3c2)cc1)C(=O)O (stereo not shown) [Example 24]", "melting point", "168 to 170 °C"),
    ("CCOC(Cc1ccc(NCCCC2CCc3cc(OS(C)(=O)=O)ccc3C2)cc1)C(=O)O (stereo not shown) (as salt: salt) [Example 54]", "melting point", "115 to 117 °C"),
    ("CCOC(Cc1ccc(NCCCN2CCc3ccccc32)cc1)C(=O)O (stereo not shown) (as salt: salt) [Example 52]", "melting point", "130 to 132 °C"),
    ("CCOC(Cc1ccc(NCC2CCc3cc(OS(C)(=O)=O)ccc3C2)cc1)C(=O)O (stereo not shown) (as salt: salt) [Example 53]", "melting point", "96 to 98 °C"),
    ("CCOC(=O)[C@H](Cc1ccc(NCc2ccc3cc(OS(C)(=O)=O)ccc3c2)cc1)OC [Example 1]", "melting point", "94 to 96 °C"),
]

Entry CC(C)(Oc1ccc(NCc2ccc3cc(OS(C)(=O)=O)ccc3c2)cc1)C(=O)O [Example 26] has what melting point?
182 to 184 °C

Entry CC(C)(Oc1ccc(OCc2ccc3cc(OS(C)(=O)=O)ccc3c2)cc1)C(=O)O [Example 37] has what melting point?
147 to 149 °C

Entry CCOC(Cc1ccc(NCCCn2ccc3ccccc32)cc1)C(=O)O (stereo not shown) (as salt: salt) [Example 47] has what melting point?
130 °C

Entry CC(C)(Oc1ccc(CCCOc2ccc(-c3ccccc3)cc2)cc1)C(=O)O [Example 63] has what melting point?
130 to 133 °C

====

system under test: hPPARα (Homo sapiens)
Construct: expressed in transfected cells; host or cells: HEK-293
Sequence (Q07869 239-466 limits assumed): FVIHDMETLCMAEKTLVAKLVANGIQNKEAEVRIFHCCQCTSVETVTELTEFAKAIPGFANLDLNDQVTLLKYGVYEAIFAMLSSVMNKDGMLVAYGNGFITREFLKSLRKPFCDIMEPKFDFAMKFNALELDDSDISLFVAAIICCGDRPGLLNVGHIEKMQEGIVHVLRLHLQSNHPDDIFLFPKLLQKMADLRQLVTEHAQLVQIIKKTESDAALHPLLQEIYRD
method: Determination of hPPARα activity (GAL4-LBD luciferase reporter transactivation in HEK-293 cells)
Type: cell-based
protocol conditions: 50 μM compound
We'd kindly ask you to apply these PPAR fold activation, PPAR α at 50 μM concentration classes: LOW: < 4 fold; MEDIUM: ≥ 4 fold and < 5 fold; HIGH: ≥ 5 fold

Worked cases, answers included:
# molecule, group
records = [
    ("CCOC(=O)C(Cc1ccc(NCc2ccc3cc(OS(C)(=O)=O)ccc3c2)cc1)OCC (stereo not drawn)", "LOW"),
    ("CCOC(Cc1ccc(NCCCN2CCCc3ccccc32)cc1)C(=O)O (stereo not drawn)", "LOW"),
    ("CCOC(CCCc1ccc(NCc2ccc3cc(OS(C)(=O)=O)ccc3c2)cc1)C(=O)O (stereo not drawn)", "LOW"),
    ("CCOC(Cc1ccc(NCC2CCc3cc(OS(C)(=O)=O)ccc3C2)cc1)C(=O)O (stereo not drawn)", "LOW"),
    ("CCOC(=O)[C@H](Cc1ccc(NCc2ccc3cc(OS(C)(=O)=O)ccc3c2)cc1)OC", "LOW"),
    ("CO[C@@H](Cc1ccc(NCCCn2ccc3ccccc32)cc1)C(=O)O", "MEDIUM"),
]

Now turn to the next molecule.
Sort into band: CO[C@@H](Cc1ccc(NCc2ccc3cc(OS(C)(=O)=O)ccc3c2)cc1)C(=O)O
HIGH

====

Structures can show the parent of a compound that is named as a salt.
measure name: melting point

# molecule, measure name, endpoint result
rows = [
    ("CC(C)(C)OC(=O)Nc1ccc(OCCCc2ccc(OC(C)(C)C(=O)O)cc2)cc1", "melting point", "132 to 134 °C"),
    ("CCOC(CCCc1ccc(NCc2ccc3cc(OS(C)(=O)=O)ccc3c2)cc1)C(=O)O (stereo not drawn) (as salt: salt)", "melting point", "118 to 120 °C"),
]

// moving on: another record for melting point
Entry CCOC(Cc1ccc(NCCCN2CCCc3ccccc32)cc1)C(=O)O (stereo not drawn) (as salt: salt) has what melting point?
134 to 136 °C

====

system under test: hPPARγ1 (Homo sapiens)
Construct: expressed in transfected cells; host or cells: HEK-293
method: Determination of hPPARγ activity (GAL4-LBD luciferase reporter transactivation in HEK-293 cells)
Format: cell-based
protocol conditions: 1 μM compound
measure name: PPAR fold activation, PPAR γ at 1 μM concentration (fold)
Please state the figure in fold; there is no need to write the unit.

# compound, system under test, endpoint result
measured = [
    ("CCOC(=O)[C@H](Cc1ccc(NCc2ccc3cc(OS(C)(=O)=O)ccc3c2)cc1)OC [Example 1]", "hPPARγ1 (Homo sapiens)", 9.2),
    ("CO[C@@H](Cc1ccc(NCCCn2ccc3cc(OS(C)(=O)=O)ccc32)cc1)C(=O)O [Example 50]", "hPPARγ1 (Homo sapiens)", 1.4),
    ("CCOC(Cc1ccc(NCC2CCc3cc(OS(C)(=O)=O)ccc3C2)cc1)C(=O)O (centres unmarked) [Example 53]", "hPPARγ1 (Homo sapiens)", 5.8),
    ("CCOC(Cc1ccc(NCCCn2ccc3ccccc32)cc1)C(=O)O (centres unmarked) [Example 47]", "hPPARγ1 (Homo sapiens)", 6.7),
    ("CCO[C@@H](Cc1ccc(NCCCn2ccc3cc(OS(C)(=O)=O)ccc32)cc1)C(=O)O [Example 49]", "hPPARγ1 (Homo sapiens)", 1.5),
    ("CO[C@@H](Cc1ccc(NCc2ccc3cc(OS(C)(=O)=O)ccc3c2)cc1)C(=O)O [Example 45]", "hPPARγ1 (Homo sapiens)", 1.4),
    ("CCOC(CCCc1ccc(NCc2ccc3cc(OS(C)(=O)=O)ccc3c2)cc1)C(=O)O (centres unmarked) [Example 46]", "hPPARγ1 (Homo sapiens)", 2.1),
]

// moving on: another record for PPAR fold activation, PPAR γ at 1 μM concentration
Entry CCOC(=O)C(Cc1ccc(NCc2ccc3cc(OS(C)(=O)=O)ccc3c2)cc1)OCC (centres unmarked) [Example 2] has what PPAR fold activation, PPAR γ at 1 μM concentration?
15.5

====

Structures can show the parent of a compound that is named as a salt.
Each entry below carries its recorded melting point.

The examples below pair each entry with its known result.
# compound, melting point
data = [
    ("CC(C)(Oc1cccc(CCCOc2ccc(OS(C)(=O)=O)cc2)c1)C(=O)O", "93 to 95 °C"),
    ("CO[C@@H](Cc1ccc(NCCCn2ccc3cc(OS(C)(=O)=O)ccc32)cc1)C(=O)O (as salt: salt)", "102 to 104 °C"),
    ("CCOC(=O)C(Cc1ccc(NCc2ccc3cc(OS(C)(=O)=O)ccc3c2)cc1)OCC (stereo not drawn)", "118 to 120 °C"),
    ("CCOC(=O)C(C)(C)Oc1ccc(NCc2ccc3cc(OS(C)(=O)=O)ccc3c2)cc1", "116 to 118 °C"),
    ("CC(C)(Oc1ccc(CCCOc2ccc(NS(C)(=O)=O)cc2)cc1)C(=O)O", "122 to 124 °C"),
]

// moving on: another record for melting point
Entry CCO[C@@H](Cc1ccc(NCCCn2ccc3cc(OS(C)(=O)=O)ccc32)cc1)C(=O)O (as salt: salt) has what melting point?
102 to 104 °C
